Could you please report measured SPOT peptide array binding signal intensity for the items listed next?
tgt: SpHof1-3
method: SPOT peptide array binding signal intensity (averaged, normalized) (arbitrary units (background-subtracted, floor 0; scale differs between SH3 domains)); higher = stronger binding of the SH3 domain to the peptide

Using known records, supply SPOT peptide array binding signal intensity for PELAPKREAPKPPAN
1

Give me measured SPOT peptide array binding signal intensity, please, for this binder: QPPLPSSAPPIPTSH
≤ 0

Read the entry TKRKRPARLIFYDSK and write its reported SPOT peptide array binding signal intensity.
380

Input GKKVRPLLVLLLSRA , output reported SPOT peptide array binding signal intensity.
758
